The reported measurements were obtained from paper PMC9927415.

Record form. Attribute: inhibition at 10 µM. Fill in for each entry.
Biological target: PDPK1 (Homo sapiens, UniProt O15530)
Construct: purchased DiscoverX (KINOMEscan)
Sequence (O15530 1-556): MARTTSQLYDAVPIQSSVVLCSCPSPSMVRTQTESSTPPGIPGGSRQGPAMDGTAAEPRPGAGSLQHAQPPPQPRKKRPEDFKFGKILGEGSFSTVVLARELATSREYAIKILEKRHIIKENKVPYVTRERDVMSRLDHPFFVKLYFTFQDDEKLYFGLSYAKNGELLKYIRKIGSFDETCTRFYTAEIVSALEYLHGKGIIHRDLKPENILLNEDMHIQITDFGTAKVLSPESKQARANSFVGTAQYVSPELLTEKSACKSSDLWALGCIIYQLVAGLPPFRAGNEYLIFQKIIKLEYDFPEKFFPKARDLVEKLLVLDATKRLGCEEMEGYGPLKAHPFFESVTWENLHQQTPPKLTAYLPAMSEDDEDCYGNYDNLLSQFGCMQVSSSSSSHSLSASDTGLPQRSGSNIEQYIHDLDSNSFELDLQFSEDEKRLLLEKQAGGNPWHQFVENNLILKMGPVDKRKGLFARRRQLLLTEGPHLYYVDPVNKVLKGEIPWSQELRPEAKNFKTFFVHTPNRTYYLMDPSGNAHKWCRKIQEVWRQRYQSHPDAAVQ
Test: KINOMEscan competitive binding
Conditions: n=1, read-out: Percent inhibition, PDPK1
Give bare numbers, in %.

[
  {
    "structure": "c1ccc(COc2cccc(-c3ccnc4[nH]ccc34)c2)cc1",
    "inhibition at 10 µM, %": 0
  },
  {
    "structure": "Nc1ncc2c(-c3ccncc3)c[nH]c2n1",
    "inhibition at 10 µM, %": 79.6
  }
]

Okay, now this molecule:
Per the record, Cc1ccc(O)cc1Nc1ccnc(Nc2cccc(C(N)=O)c2)n1 has inhibition at 10 µM of 0

---

Record form. Attribute: inhibition at 10 µM. Fill in for each entry.
target: panel of 203 kinases (Homo sapiens, UniProt P28482); construct: purchased DiscoverX (KINOMEscan); assay: KINOMEscan competitive binding, whole panel; conditions: 10 µM, n=1; kinase ERK2; read-out: Percent inhibition ERK2
Sequence (P28482 whole entry): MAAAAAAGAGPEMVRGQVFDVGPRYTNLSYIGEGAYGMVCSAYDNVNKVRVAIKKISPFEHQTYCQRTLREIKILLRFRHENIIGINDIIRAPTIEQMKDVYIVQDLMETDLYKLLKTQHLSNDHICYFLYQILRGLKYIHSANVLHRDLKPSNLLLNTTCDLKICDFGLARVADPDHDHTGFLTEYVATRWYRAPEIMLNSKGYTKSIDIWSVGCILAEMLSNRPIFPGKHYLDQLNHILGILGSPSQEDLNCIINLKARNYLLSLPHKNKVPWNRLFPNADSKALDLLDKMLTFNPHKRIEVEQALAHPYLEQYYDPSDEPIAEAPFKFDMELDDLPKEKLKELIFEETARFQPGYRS
Answers are plain numbers, in %.

[
  {
    "compound": "Fc1cccc(COc2ccc(Nc3ncnc4c3CN(CCN3CCOCC3)CC4)cc2Cl)c1 [Compound 6]",
    "inhibition at 10 µM, %": 0
  },
  {
    "compound": "Nc1ncc2c(-c3ccncc3)c[nH]c2n1 [Compound 11]",
    "inhibition at 10 µM, %": 0
  }
]

Okay, now this compound:
Field inhibition at 10 µM (panel of 203 kinases (Homo sapiens, UniProt P28482)), entry Cc1ccc(O)cc1N(C)c1ccnc(Nc2cccc(S(N)(=O)=O)c2)n1 [Compound 4] : 64

---

Record form. Attribute: inhibition at 10 µM. Fill in for each entry.
target: TYK2(Kin.Dom.2) (Homo sapiens, UniProt P29597); construct: TYK2(Kin.Dom.2); purchased DiscoverX (KINOMEscan); test: KINOMEscan competitive binding; details: n=1, read-out: Percent inhibition, TYK2(Kin.Dom.2)
Sequence (P29597 889-1187 limits assumed): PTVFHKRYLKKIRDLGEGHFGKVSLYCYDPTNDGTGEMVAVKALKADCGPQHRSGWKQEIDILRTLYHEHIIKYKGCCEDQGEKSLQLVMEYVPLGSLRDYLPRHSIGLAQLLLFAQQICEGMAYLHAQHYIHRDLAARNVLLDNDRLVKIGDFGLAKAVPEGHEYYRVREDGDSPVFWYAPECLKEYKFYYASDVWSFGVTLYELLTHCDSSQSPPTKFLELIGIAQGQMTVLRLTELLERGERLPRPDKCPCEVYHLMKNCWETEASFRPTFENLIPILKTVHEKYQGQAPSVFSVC
Answers are plain numbers, in %.

Please review the entries below; each comes with its answer.
[
  {
    "structure": "COc1ccc(Nc2nccc(-c3cnn4ncccc34)n2)cc1",
    "inhibition at 10 µM (%)": 0
  },
  {
    "structure": "Fc1cccc(COc2ccc(Nc3ncnc4c3CN(CCN3CCOCC3)CC4)cc2Cl)c1",
    "inhibition at 10 µM (%)": 0
  },
  {
    "structure": "Cc1ccc(O)cc1N(C)c1ccnc(Nc2cccc(S(N)(=O)=O)c2)n1",
    "inhibition at 10 µM (%)": 95.6
  },
  {
    "structure": "COc1cc(Nc2nccc(-c3sc(N)nc3-c3cccc(NC(=O)c4c(F)cccc4F)c3)n2)cc(OC)c1OC",
    "inhibition at 10 µM (%)": 97.2
  },
  {
    "structure": "Cc1ccc(O)cc1Nc1ccnc(Nc2cccc(C(N)=O)c2)n1",
    "inhibition at 10 µM (%)": 94
  },
  {
    "structure": "c1ccc(COc2cccc(-c3ccnc4[nH]ccc34)c2)cc1",
    "inhibition at 10 µM (%)": 0
  }
]

Please state, for each entry, its recorded inhibition at 10 µM.
1. Clc1ccc(Nc2ncc(-c3ccccc3)s2)cc1
2. C[C@@H](Oc1cc(-c2cnc3ccccn23)sc1C(N)=O)c1ccccc1Cl

1: 0; 2: 0

---

Record form. Attribute: inhibition at 10 µM. Fill in for each entry.
target: PDGFRβ (Homo sapiens); construct: purchased DiscoverX (KINOMEscan); assay: KINOMEscan competitive binding; settings: KINOMEscan, 10 µM, n=1; read-out: Percent inhibition, PDGFRB
Sequence (P09619 33-1106): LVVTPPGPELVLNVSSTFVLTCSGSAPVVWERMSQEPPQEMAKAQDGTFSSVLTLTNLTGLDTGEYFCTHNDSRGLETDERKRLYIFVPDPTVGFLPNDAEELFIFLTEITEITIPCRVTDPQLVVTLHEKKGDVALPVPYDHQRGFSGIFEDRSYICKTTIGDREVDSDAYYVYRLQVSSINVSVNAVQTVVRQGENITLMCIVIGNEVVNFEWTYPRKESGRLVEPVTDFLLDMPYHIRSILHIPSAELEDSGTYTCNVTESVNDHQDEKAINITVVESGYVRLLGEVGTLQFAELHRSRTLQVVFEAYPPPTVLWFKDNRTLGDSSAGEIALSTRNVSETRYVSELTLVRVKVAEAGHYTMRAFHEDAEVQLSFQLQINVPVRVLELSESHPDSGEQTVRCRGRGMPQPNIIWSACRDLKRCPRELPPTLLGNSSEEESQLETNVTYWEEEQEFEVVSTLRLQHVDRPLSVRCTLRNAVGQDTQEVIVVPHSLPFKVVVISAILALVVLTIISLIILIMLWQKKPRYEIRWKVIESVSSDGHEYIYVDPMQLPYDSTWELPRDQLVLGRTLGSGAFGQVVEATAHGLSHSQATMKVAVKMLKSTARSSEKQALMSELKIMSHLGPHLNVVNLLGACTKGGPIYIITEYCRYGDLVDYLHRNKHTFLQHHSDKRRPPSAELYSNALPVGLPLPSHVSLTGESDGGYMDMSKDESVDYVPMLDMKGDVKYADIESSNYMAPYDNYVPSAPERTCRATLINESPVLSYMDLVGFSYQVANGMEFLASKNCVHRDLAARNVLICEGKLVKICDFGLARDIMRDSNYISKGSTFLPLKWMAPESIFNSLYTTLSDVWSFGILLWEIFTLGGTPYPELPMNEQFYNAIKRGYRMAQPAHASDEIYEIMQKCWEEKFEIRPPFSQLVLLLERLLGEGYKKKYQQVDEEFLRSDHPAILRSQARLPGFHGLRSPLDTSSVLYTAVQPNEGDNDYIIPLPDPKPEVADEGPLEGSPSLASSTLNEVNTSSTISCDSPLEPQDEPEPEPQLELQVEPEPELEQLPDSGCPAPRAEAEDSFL
One number for each entry, in %.

Please state, for each entry, its recorded inhibition at 10 µM.
1. c1ccc(COc2cccc(-c3ccnc4[nH]ccc34)c2)cc1 [Compound 9]
2. Cc1ccc(O)cc1Nc1ccnc(Nc2cccc(C(N)=O)c2)n1 [Compound 3]
3. Cc1ccc(O)cc1N(C)c1ccnc(Nc2cccc(S(N)(=O)=O)c2)n1 [Compound 4]
4. Clc1ccc(Nc2ncc(-c3ccccc3)s2)cc1 [Compound 10]

1. 0
2. 100
3. 100
4. 99.9

Per the record, Nc1ncc2c(-c3ccncc3)c[nH]c2n1 [Compound 11] has inhibition at 10 µM of 93.2

---

Biological target: panel of 203 kinases (Homo sapiens, UniProt O14976)
Construct: purchased DiscoverX (KINOMEscan)
Sequence (O14976 whole entry): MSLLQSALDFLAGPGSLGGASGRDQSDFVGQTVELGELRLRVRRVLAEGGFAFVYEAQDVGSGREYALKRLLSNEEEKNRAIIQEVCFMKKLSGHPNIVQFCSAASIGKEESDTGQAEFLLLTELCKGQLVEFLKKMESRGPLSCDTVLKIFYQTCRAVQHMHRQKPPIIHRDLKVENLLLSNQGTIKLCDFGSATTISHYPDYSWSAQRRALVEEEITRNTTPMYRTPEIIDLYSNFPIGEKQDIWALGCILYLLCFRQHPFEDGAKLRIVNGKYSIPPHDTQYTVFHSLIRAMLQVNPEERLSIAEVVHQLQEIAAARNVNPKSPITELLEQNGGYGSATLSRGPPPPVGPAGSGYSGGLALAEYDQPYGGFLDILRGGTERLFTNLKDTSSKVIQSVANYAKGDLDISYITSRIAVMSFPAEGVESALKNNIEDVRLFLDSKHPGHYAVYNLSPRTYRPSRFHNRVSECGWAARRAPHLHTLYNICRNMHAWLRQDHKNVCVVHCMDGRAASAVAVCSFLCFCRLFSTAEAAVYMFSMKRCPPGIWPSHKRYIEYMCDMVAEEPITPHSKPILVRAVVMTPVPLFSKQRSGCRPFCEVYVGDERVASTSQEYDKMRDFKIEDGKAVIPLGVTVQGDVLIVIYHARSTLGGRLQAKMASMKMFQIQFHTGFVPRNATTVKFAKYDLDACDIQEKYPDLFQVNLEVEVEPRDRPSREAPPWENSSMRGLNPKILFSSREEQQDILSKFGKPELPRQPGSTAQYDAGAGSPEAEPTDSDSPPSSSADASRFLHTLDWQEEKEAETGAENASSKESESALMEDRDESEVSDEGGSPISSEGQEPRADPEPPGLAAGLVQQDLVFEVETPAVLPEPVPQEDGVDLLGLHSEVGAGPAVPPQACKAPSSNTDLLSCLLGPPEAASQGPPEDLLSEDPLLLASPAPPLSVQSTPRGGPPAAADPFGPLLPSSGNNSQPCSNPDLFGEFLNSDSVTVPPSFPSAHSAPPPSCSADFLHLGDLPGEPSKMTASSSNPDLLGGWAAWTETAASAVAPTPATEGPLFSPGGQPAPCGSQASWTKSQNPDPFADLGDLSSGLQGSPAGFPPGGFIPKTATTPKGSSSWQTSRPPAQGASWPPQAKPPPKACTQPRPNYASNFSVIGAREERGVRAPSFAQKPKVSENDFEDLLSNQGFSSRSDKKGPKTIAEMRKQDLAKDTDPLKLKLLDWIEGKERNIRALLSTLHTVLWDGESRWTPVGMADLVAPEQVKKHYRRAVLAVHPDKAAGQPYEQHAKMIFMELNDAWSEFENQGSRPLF
Experiment: KINOMEscan competitive binding, whole panel
Settings: 10 µM, n=1; kinase GAK; read-out: Percent inhibition GAK
From the text: The kinases were expressed as fusions to T7 bacteriophage. This is a sensitive, competitive binding assay where test compounds were used to displace immobilized ATP-site binding probe ligands from kinases of interest. The amount of kinase that remained bound to the immobilized probe ligands on the solid support was quantified. Percentage inhibition data were was plotted on kinome trees using the web-based tool KinMap (http://www.kinhub.org/kinmap) ([60]).
observable: inhibition at 10 µM (%)
Numbers only, in %.

Please review the entries below; each comes with its answer.
[
  {
    "structure": "Clc1ccc(Nc2ncc(-c3ccccc3)s2)cc1",
    "inhibition at 10 µM, %": 0
  },
  {
    "structure": "Cc1ccc(O)cc1Nc1ccnc(Nc2cccc(C(N)=O)c2)n1",
    "inhibition at 10 µM, %": 99.8
  },
  {
    "structure": "CN1CCN(c2ccc(Nc3nccc(-c4cnn5ncccc45)n3)cc2C#N)CC1",
    "inhibition at 10 µM, %": 97.9
  }
]

Please state, for each entry, its recorded inhibition at 10 µM.
1. COc1ccc(Nc2nccc(-c3cnn4ncccc34)n2)cc1
2. Nc1ncc2c(-c3ccncc3)c[nH]c2n1
3. Cc1ccc(O)cc1N(C)c1ccnc(Nc2cccc(S(N)(=O)=O)c2)n1

99.9
97.2
99.6

---

target: panel of 203 kinases (Homo sapiens, UniProt P08581); construct: purchased DiscoverX (KINOMEscan); assay: KINOMEscan competitive binding, whole panel; conditions: 10 µM, n=1; kinase MET; read-out: Percent inhibition MET
Sequence (P08581 25-1390): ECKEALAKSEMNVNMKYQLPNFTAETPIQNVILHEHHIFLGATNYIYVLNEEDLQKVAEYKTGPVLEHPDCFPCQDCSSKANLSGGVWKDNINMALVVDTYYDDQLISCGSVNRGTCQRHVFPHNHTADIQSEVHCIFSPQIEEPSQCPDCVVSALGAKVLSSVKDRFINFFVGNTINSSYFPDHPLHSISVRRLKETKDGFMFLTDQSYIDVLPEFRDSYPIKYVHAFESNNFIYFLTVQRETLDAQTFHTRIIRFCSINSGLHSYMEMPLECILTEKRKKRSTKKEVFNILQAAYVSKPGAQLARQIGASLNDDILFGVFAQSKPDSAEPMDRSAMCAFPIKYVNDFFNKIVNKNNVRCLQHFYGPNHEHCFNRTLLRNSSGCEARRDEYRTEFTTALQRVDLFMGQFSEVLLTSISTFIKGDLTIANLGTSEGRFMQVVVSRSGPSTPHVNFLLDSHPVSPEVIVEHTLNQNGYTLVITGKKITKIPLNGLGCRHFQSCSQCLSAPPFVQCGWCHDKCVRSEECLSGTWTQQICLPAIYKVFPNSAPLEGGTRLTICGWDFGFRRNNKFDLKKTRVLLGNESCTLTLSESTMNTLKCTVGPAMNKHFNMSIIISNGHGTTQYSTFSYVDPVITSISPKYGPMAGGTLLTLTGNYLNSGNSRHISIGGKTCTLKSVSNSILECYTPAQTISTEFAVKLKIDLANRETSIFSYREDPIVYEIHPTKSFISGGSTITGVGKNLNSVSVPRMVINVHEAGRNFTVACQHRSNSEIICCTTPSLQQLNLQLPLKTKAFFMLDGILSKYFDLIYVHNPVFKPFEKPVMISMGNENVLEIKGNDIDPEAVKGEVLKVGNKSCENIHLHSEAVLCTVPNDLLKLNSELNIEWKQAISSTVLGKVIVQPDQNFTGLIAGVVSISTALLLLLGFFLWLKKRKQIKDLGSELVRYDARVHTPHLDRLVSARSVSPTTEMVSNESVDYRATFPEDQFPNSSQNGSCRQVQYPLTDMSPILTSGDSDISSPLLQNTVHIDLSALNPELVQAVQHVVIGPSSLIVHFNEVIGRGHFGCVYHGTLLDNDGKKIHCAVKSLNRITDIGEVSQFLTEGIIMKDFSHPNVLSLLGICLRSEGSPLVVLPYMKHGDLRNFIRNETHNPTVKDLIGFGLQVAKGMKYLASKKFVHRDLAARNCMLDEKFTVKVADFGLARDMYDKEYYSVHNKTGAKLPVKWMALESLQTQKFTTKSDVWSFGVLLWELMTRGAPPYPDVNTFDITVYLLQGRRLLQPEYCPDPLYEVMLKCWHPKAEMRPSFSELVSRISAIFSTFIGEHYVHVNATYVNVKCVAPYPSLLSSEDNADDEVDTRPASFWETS
Record form. Attribute: inhibition at 10 µM. Fill in for each entry.
The answer should read as a number with its unit following.

Please state, for each entry, its recorded inhibition at 10 µM.
1. Cc1ccc(O)cc1Nc1ccnc(Nc2cccc(C(N)=O)c2)n1
2. c1ccc(COc2cccc(-c3ccnc4[nH]ccc34)c2)cc1
3. Clc1ccc(Nc2ncc(-c3ccccc3)s2)cc1

1. 0%
2. 0%
3. 0%

---

target: TNK1 (Homo sapiens, UniProt Q13470); construct: purchased DiscoverX (KINOMEscan); experiment: KINOMEscan competitive binding; conditions: n=1, read-out: Percent inhibition, TNK1
Sequence (Q13470 whole entry): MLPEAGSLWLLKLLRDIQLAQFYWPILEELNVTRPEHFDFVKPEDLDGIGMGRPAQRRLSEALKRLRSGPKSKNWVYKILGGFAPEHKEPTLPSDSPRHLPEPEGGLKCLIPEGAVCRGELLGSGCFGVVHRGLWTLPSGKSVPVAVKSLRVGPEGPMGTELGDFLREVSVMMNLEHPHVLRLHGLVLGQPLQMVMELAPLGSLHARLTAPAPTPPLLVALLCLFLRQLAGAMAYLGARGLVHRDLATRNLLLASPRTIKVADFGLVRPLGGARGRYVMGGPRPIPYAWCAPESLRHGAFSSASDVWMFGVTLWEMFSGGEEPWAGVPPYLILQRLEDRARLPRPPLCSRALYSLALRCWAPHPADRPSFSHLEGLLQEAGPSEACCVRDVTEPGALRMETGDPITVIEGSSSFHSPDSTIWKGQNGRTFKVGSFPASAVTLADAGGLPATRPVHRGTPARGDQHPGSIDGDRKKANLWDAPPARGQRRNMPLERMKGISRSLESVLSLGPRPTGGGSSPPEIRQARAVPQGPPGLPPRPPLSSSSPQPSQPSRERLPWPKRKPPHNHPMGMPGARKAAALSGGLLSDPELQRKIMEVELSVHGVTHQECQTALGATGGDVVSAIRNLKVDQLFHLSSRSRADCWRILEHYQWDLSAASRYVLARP
Kindly return true if reported inhibition at 10 µM is no lower than 80%; return false if it is lower.

Consider the following illustrative entries.
[
  {
    "structure": "COc1ccc(Nc2nccc(-c3cnn4ncccc34)n2)cc1",
    "cat": "true"
  },
  {
    "structure": "Nc1ncc2c(-c3ccncc3)c[nH]c2n1",
    "cat": "false"
  },
  {
    "structure": "c1ccc(COc2cccc(-c3ccnc4[nH]ccc34)c2)cc1",
    "cat": "false"
  },
  {
    "structure": "C[C@@H](Oc1cc(-c2cnc3ccccn23)sc1C(N)=O)c1ccccc1Cl",
    "cat": "false"
  },
  {
    "structure": "CN1CCN(c2ccc(Nc3nccc(-c4cnn5ncccc45)n3)cc2C#N)CC1",
    "cat": "true"
  },
  {
    "structure": "Clc1ccc(Nc2ncc(-c3ccccc3)s2)cc1",
    "cat": "false"
  }
]

Please check the record COc1cc(Nc2nccc(-c3sc(N)nc3-c3cccc(NC(=O)c4c(F)cccc4F)c3)n2)cc(OC)c1OC and state if its inhibition at 10 µM is at or above 80%.
true

Please check the record Cc1ccc(O)cc1N(C)c1ccnc(Nc2cccc(S(N)(=O)=O)c2)n1 and state if its inhibition at 10 µM is at or above 80%.
true
